assay.remarks: mn = molality of the nth substance listed, in mol/kg
run.parameters: 293.15 K; 101.3 kPa; Liquid; Capillary tube (Ostwald / Ubbelohde) method; m1 = 0.6

>  <molecule>
NCC(=O)O [2-aminoacetic acid] + O

>  <measurement.units>
mPa·s

>  <viscosity>
1.086

$$$$
>  <molecule>
OC[C@@H](O)[C@@H](O)[C@H](O)[C@H](O)CO [D-mannitol] + O

>  <measurement.units>
mPa·s

>  <viscosity>
1.336

$$$$
>  <molecule>
C[C@@H](O)[C@H](N)C(=O)O [L-threonine] + O

>  <measurement.units>
mPa·s

>  <viscosity>
1.225

$$$$
>  <molecule>
N=C(N)NCCC[C@H](N)C(=O)O [L-arginine] + O

>  <measurement.units>
mPa·s

>  <viscosity>
1.362

$$$$

###

Parameter mass density: see the listing below.
assay.remarks: mn = molality of the nth substance listed, in mol/kg
run.parameters: 323.15 K; 101.3 kPa; Liquid; Vibrating tube method; m1 = 0.6
measurement.label: mass density (kg/m3)

>  <compound>
NCC(=O)O [2-aminoacetic acid] + O

>  <value.measured>
1005.88

$$$$
>  <compound>
OC[C@@H](O)[C@@H](O)[C@H](O)[C@H](O)CO [D-mannitol] + O

>  <value.measured>
1022.09

$$$$
>  <compound>
N=C(N)NCCC[C@H](N)C(=O)O [L-arginine] + O

>  <value.measured>
1014.8

$$$$
>  <compound>
C[C@@H](O)[C@H](N)C(=O)O [L-threonine] + O

>  <value.measured>
1011.44

$$$$

###

Parameter mass density: see the listing below.
assay.remarks: mn = molality of the nth substance listed, in mol/kg
run.parameters: 303.15 K; 101.3 kPa; Liquid; Vibrating tube method; m1 = 0.6
± gives the expanded uncertainty stated by the source.

>  <molecule>
NCC(=O)O [2-aminoacetic acid] + O

>  <mass density>
1013.91 ± 0.15 kg/m3

$$$$
>  <molecule>
N=C(N)NCCC[C@H](N)C(=O)O [L-arginine] + O

>  <mass density>
1022.9 ± 0.29 kg/m3

$$$$
>  <molecule>
OC[C@@H](O)[C@@H](O)[C@H](O)[C@H](O)CO [D-mannitol] + O

>  <mass density>
1030.35 ± 0.16 kg/m3

$$$$
>  <molecule>
C[C@@H](O)[C@H](N)C(=O)O [L-threonine] + O

>  <mass density>
1019.52 ± 0.18 kg/m3

$$$$

###

assay.remarks: mn = molality of the nth substance listed, in mol/kg
run.parameters: 313.15 K; 101.3 kPa; Liquid; Vibrating tube method; m1 = 0.6
Parameter mass density: see the listing below.
measurement.label: mass density (kg/m3)

>  <compound>
N=C(N)NCCC[C@H](N)C(=O)O [L-arginine] + O

>  <measurement.label>
mass density

>  <measurement.units>
kg/m3

>  <value.measured>
1019.15

$$$$
>  <compound>
OC[C@@H](O)[C@@H](O)[C@H](O)[C@H](O)CO [D-mannitol] + O

>  <measurement.label>
mass density

>  <measurement.units>
kg/m3

>  <value.measured>
1026.6

$$$$
>  <compound>
C[C@@H](O)[C@H](N)C(=O)O [L-threonine] + O

>  <measurement.label>
mass density

>  <measurement.units>
kg/m3

>  <value.measured>
1015.83

$$$$
>  <compound>
NCC(=O)O [2-aminoacetic acid] + O

>  <measurement.label>
mass density

>  <measurement.units>
kg/m3

>  <value.measured>
1010.25

$$$$

###

assay.remarks: mn = molality of the nth substance listed, in mol/kg
run.parameters: 323.15 K; 101.3 kPa; Liquid; Vibrating tube method; m1 = 0.2

>  <compound>
NCC(=O)O [2-aminoacetic acid] + O

>  <mass density (kg/m3)>
994.14

$$$$
>  <compound>
OC[C@@H](O)[C@@H](O)[C@H](O)[C@H](O)CO [D-mannitol] + O

>  <mass density (kg/m3)>
999.96

$$$$
>  <compound>
C[C@H](N)C(=O)O [(S)-2-aminopropanoic acid] + O

>  <mass density (kg/m3)>
993.55

$$$$
>  <compound>
N=C(N)NCCC[C@H](N)C(=O)O [L-arginine] + O

>  <mass density (kg/m3)>
997.5

$$$$

###

assay.remarks: mn = molality of the nth substance listed, in mol/kg
run.parameters: 303.15 K; 101.3 kPa; Liquid; Capillary tube (Ostwald / Ubbelohde) method; m1 = 0.2

>  <molecule>
NCC(=O)O [2-aminoacetic acid] + O

>  <viscosity (mPa·s)>
0.82

$$$$
>  <molecule>
C[C@H](N)C(=O)O [(S)-2-aminopropanoic acid] + O

>  <viscosity (mPa·s)>
0.837

$$$$
>  <molecule>
OC[C@@H](O)[C@@H](O)[C@H](O)[C@H](O)CO [D-mannitol] + O

>  <viscosity (mPa·s)>
0.874

$$$$
>  <molecule>
N=C(N)NCCC[C@H](N)C(=O)O [L-arginine] + O

>  <viscosity (mPa·s)>
0.879

$$$$

Cited source for all entries: the NIST ThermoML archive (doi:10.1021/je501178z)
